# test: qHTS assay for identifying genotoxic compounds that show differential cytotoxicity against isogenic chicken DT40 cell lines with known DNA damage response pathways - wild type cell line (AID 743012); note: nearly all actives have a fitted effect of over 60% in size
# experimental.conditions: DT40 wild type chicken cells viability, CellTiter-Glo, 40 h; series mostly up to 68.4 µM
Inconclusive results are not listed. The source made the active and inactive calls. Calls come from the whole dose curve; as a rule, active = well fitted cell-killing curve with a large enough effect in the repeat runs; inconclusive = weak or mixed curves, or effect the other way; inactive = no such curve, though single readings can be large or run the other way.
# valid calls are yes (1) (active), no (0) (inactive); nothing else

Query: recorded result category for `COC(=O)CC(C)=O` in this test
no (0)

Next entry: Cn1cc(S(C)=O)c(=O)c2ccc(F)cc21 (stereo not drawn)
no (0)

Next entry: `COC(=O)NN`
no (0)

Next entry: `C=C1CC[C@H]2C[C@@H]1C2(C)C`
no (0)

Next entry: `CC(=O)OCC(CCn1cnc2cnc(N)nc21)COC(C)=O`
no (0)

Next entry: `CCCCC/C=C\CCC=O`
no (0)

Next entry: `CO[C@]12C[C@@H](COC(=O)c3cncc(Br)c3)CN(C)[C@@H]1Cc1cn(C)c3cccc2c13`
yes (1)

Next entry: CCC(C)C1CCCCC1=O (stereo not drawn)
no (0)

Next entry: CC(C(=O)O)c1ccc(CC2CCCC2=O)cc1 (stereo not drawn)
no (0)

Next entry: `CC/C=C\CC/C=C/CO`
no (0)

Next entry: `CC1(C)CO[C@@H](CC(=O)O)CN1`
no (0)

Next entry: CC1=CC(C)C(C=O)CC1 (stereo not drawn)
no (0)

Next entry: COc1ccccc1OCC(O)CN1CCN(CC(=O)Nc2c(C)cccc2C)CC1 (stereo not drawn)
no (0)
